Values compiled from paper PMC7959488.

Provide the recorded UEMM-PBSA for the entries that follow.
# TGT: SARS-CoV-2 M^pro (Severe acute respiratory syndrome coronavirus 2, UniProt P0DTD1)
# CONDITION PARAMETERS: unsigned error |ΔGMM-PBSA − ΔGexp|
Put down the number, then write its unit next to it.

# MOLECULE, UEMM-PBSA
records = [
    ("CC(=O)NS(=O)(=O)c1ccc(N)cc1 [Sulfacetamide]", "7.3 kcal/mol"),
    ("CC(C)Nc1nc2cc(Cl)c(Cl)cc2n1[C@H]1O[C@@H](CO)[C@H](O)[C@@H]1O [Maribavir]", "19.5 kcal/mol"),
]

Now for another entry.
Requested read-out: UEMM-PBSA. Entry: CN/C(=N/CCSCc1nc[nH]c1C)NC#N [Cimetidine]
18.7 kcal/mol
